- system_under_test: E. coli DNA gyrase (Escherichia coli)
- Construct: made in house; host or cells: E. coli BL21 (DE3)
- assay_remarks: Test for evaluating the activity of inhibiting E. coli DNA gyrase enzyme (Method 1, supercoiling, Inspiralis enzyme)
- Assay type: biochemical
- Description: Test Example 1-1 Test for Evaluating the Activity of Inhibiting E. coli DNA Gyrase Enzyme (Method 1) The enzymatic activity of E. coli DNA gyrase was measured by a method comprising reacting DNA gyrase and its substrate, relaxed pBR322 (Inspiralis), in the presence of ATP and detecting the post-reaction supercoiled pBR322/relaxed pBR322 ratio with H19 (Profoldin). […]
Counter-ions that a name gives are not always drawn.
In this section, each of the compounds is paired with its reported pIC50.
Keep it numeric: pIC50 is minus log10 of the concentration in mol/L.

See these solved cases before continuing.
> print(dat)
                                   compound  measurement.label  test.value
1  CNc1cc(F)cc2cc(C(=O)Nc3cnc(N4CC(N)C4)nc3)c(=O)[nH]c12.O=CO [Example 60]              pIC50        7.93
2  CNc1cc(F)cc2cc(C(=O)N(C)c3ccc(C(=O)O)cc3)c(=O)[nH]c12 [Example 56]              pIC50        7.74
3  CNc1cccc2cc(C(=O)Nc3ccc(C(=O)NCCCN)cc3)c(=O)[nH]c12.Cl [Example 46, hydrochloride]              pIC50        8.13

Okay, next one:
Value of pIC50 reported for the compound CNc1cc(F)cc2cc(C(=O)Nc3ccc(C(=O)O)cc3CN(C)C3CCCCC3)c(=O)[nH]c12 [Example 70, hydrochloride] is 9.28
